Source: PubChem BioAssay

- assay.procedure: growth inhibitors of H69AR lung tumor, primary screen, human, duplicate replicates (AID 580);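 also: 100% = mean luminescence of untreated wells and 0% = no signal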
- settings: H69AR lung tumor cells viability, ATP luminescence, 72 h; at 10 µM; hits give low values
property.label: viability (%)

>>> obs_value("CCCSc1nc2c(c(=O)[nH]c(=O)n2C)n1CCc1ccccc1")
86.8
>>> obs_value("Cc1cc(C)n(-c2nc3c(c(=O)n(Cc4ccc(Cl)c(Cl)c4)c(=O)n3C)n2C)n1")
95.6
>>> obs_value("CN(C)c1cccc2c(S(=O)(=O)Nc3ccccn3)cccc12")
101
>>> obs_value("Fc1ccc(-n2c(Cc3ccccc3)nnc2SCc2nc(-c3cccs3)no2)cc1")
94.1
>>> obs_value("c1ccc2nc(-c3nc4ccccc4[nH]3)ccc2c1")
66.6
>>> obs_value("O=C(c1ccco1)N1CCN(c2ccc(Cl)cc2)CC1")
99.8
